system: WiDr cells; assay: WiDr CellTiter-Glo 3D cell proliferation assay; format: cell-based; details: Homo sapiens; WiDr cells, 3D proliferation; read-out: 3D WiDr pGI50 (converted)
Please go through the items and note down their GI50.
Numbers only, in nM.

compound	GI50 (nM)
O=C(Cn1cncn1)Nc1cc(Oc2ccc3c(c2)CC(c2nc(-c4ccccc4)c[nH]2)CO3)ccn1 (stereo not shown)	661

Batch request: GI50 per item, same order as input.
1. O=C1CCc2c(Oc3ccc4c(c3)CN(c3nc5cc(C(F)(F)F)ccc5[nH]3)CC4)ccnc2N1
2. Cc1c[nH]c(-c2cc(Oc3ccc4c(c3)CC(c3nc(-c5ccccc5)c[nH]3)CO4)ccn2)n1 (stereo not shown)
3. Cc1cc(-c2c[nH]c(C3COc4ccc(Oc5ccnc6c5CCC(=O)N6)cc4C3)n2)ccn1 (stereo not shown)
4. CCn1nc(C)cc1-c1c[nH]c(C2COc3ccc(Oc4ccnc5c4CCC(=O)N5)cc3C2)n1 (stereo not shown)

# output
1: 2090; 2: 1510; 3: 708; 4: 1450

Batch request: GI50 per item, same order as input.
1. O=C1CCc2c(Oc3ccc4c(c3)CC(c3nc(-c5ccnc(C(F)(F)F)c5)c[nH]3)CO4)ccnc2N1 (stereo not shown)
2. CN1CCN(CC(=O)Nc2cc(Oc3ccc4c(c3)CC(c3nc(-c5ccccc5)c[nH]3)CO4)ccn2)CC1 (stereo not shown)

# output
191
813

---

Please go through the items and note down their solubility thermodynamic at 24 h.
assay: FeSSIF solubility assay; format: physicochemical; conditions: fed state simulated intestinal fluid (FeSSIF), thermodynamic from solid, pH 5 acetate buffer, 37° C., read-out: Sol (FESSIF)

Worked cases, solubility thermodynamic at 24 h given:
compound	metric.name	observed.result
O=C1CCc2c(Oc3ccc4c(c3)CC(c3nc(-c5ccnc(C(F)(F)F)c5)c[nH]3)CO4)ccnc2N1 (stereo not shown)	solubility thermodynamic at 24 h	18.5 µg/mL
O=C1CCc2c(Oc3ccc4c(c3)CC(c3nc5cc(Cl)ccc5[nH]3)CO4)ccnc2N1 (stereo not shown)	solubility thermodynamic at 24 h	1.8 µg/mL
COc1cc(-c2c[nH]c(C3COc4ccc(Oc5ccnc6c5CCC(=O)N6)cc4C3)n2)ccn1 (stereo not shown)	solubility thermodynamic at 24 h	19.6 µg/mL

# input Query (compound): O=C1CCc2c(Oc3ccc4c(c3)CN(C(=O)Nc3ccc(C(F)(F)F)cc3)CC4)ccnc2N1 ; field requested: solubility thermodynamic at 24 h
# output 27.5 µg/mL

---

test system: RAF dimers in HCT-116 cells; experiment: HCT-116 AlphaLISA SureFire pERK1/2 cellular assay (dimer); type: cell-based; conditions: Homo sapiens, HCT-116; HCT116 cells, dimer, 1 hr; read-out: pERK HCT116 dimer (1 hr) plC50 (converted)
metric.name: log10(IC50) (log10 of the value in nM)
Recall that a logarithmic scale is used here: each number is log10 of IC50 in nM.

compound	metric.name	observed.result
O=C1CCc2c(Oc3ccc4c(c3)CC(c3nc(-c5cncc(C(F)F)c5)c[nH]3)CO4)ccnc2N1 (stereo not shown) [Compound 105]	log10(IC50)	1.81
O=C(Nc1cc(Oc2ccc3c(c2)CC(c2nc(-c4ccccc4)c[nH]2)CO3)ncn1)C1CC1 (stereo not shown) [Compound 151]	log10(IC50)	2.31
c1ccc(-c2c[nH]c(C3COc4ccc(Oc5ccnc(Nc6ccccn6)c5)cc4C3)n2)cc1 (stereo not shown) [Compound 140]	log10(IC50)	3.31
COc1cc(-c2c[nH]c(C3COc4ccc(Oc5ccnc6c5CCC(=O)N6)cc4C3)n2)ccn1 (stereo not shown) [Compound 104]	log10(IC50)	2.54
O=C1CCc2c(Oc3ccc4c(c3)CC(c3nc(-c5ccnc(C(F)F)c5)c[nH]3)CO4)ccnc2N1 (stereo not shown) [Compound 101]	log10(IC50)	1.80

Batch request: log10(IC50) per item, same order as input.
1. O=C(CN1CC[C@@H](O)C1)Nc1cc(Oc2ccc3c(c2)CC(c2nc(-c4ccccc4)c[nH]2)CO3)ccn1 (stereo partly shown) [Compound 145]
2. Cc1cc(-c2c[nH]c(C3COc4ccc(Oc5ccnc6c5CCC(=O)N6)cc4C3)n2)n(C(C)C)n1 (stereo not shown) [Compound 112]
3. CN1CCN(CC(=O)Nc2cc(Oc3ccc4c(c3)CC(c3nc(-c5ccccc5)c[nH]3)CO4)ccn2)CC1 (stereo not shown) [Compound 146]

# output
[2.25, 2.41, 2.23]

Batch request: log10(IC50) per item, same order as input.
1. CCc1cc(-c2c[nH]c(C3COc4ccc(Oc5ccnc6c5CCC(=O)N6)cc4C3)n2)n(C2CC2)n1 (stereo not shown) [Compound 113]
2. O=C(Nc1cc(Oc2ccc3c(c2)CC(c2nc(-c4ccccc4)c[nH]2)CO3)ccn1)C1CC1 (racemic) [Compound 136]
3. Cc1cc(-c2c[nH]c(C3COc4ccc(Oc5ccnc6c5CCC(=O)N6)cc4C3)n2)n(C)n1 (stereo not shown) [Compound 106]
4. CC(C)(C)CCc1c[nH]c(C2COc3ccc(Oc4ccnc5c4CCC(=O)N5)cc3C2)n1 (stereo not shown) [Compound 115]
5. Cc1c[nH]c(-c2cc(Oc3ccc4c(c3)CC(c3nc(-c5ccccc5)c[nH]3)CO4)ccn2)n1 (stereo not shown) [Compound 143]

# output
1. 2.71
2. 1.95
3. 2.09
4. 2.02
5. 2.76

Measured values drawn from patent US12304912B2 for this set.
